target-under-test: HLA-A*01:01
assay-text: IEDB peptide-MHC binding, purified MHC/direct/fluorescence; filed as Kd, often an IC50 or EC50 that approximates it; bounds were set here for any values at or beyond the usual limits of such assays
measurement-setup: source organism: Influenza A virus (A/tiger/Thailand/CU-T4/04(H5N1))
readout: Kd

**Query** Which measured Kd value corresponds to FVRTLFQQM ?
**Result** ≥ 20 µM

* * *

target-under-test: HLA-A*26:01
assay-text: IEDB peptide-MHC binding, purified MHC/competitive/fluorescence; filed as Kd, often an IC50 or EC50 that approximates it; bounds were set here for any values at or beyond the usual limits of such assays
measurement-setup: source organism: Streptococcus pneumoniae TIGR4
pKd: −log10 of the molar value.
readout: pKd

**Query** Which pKd value belongs to CLSDEINHV ?
**Result** ≤ 4.70

Values compiled from the Immune Epitope Database (IEDB).
